- Species on record: Homo sapiens
- assay-method-text: Inhibition of acetyl-PHF6 amide self-aggregation (unknown origin) in pH 7.4 phosphate buffer at 10 uM and 25 degreeC measured every 1 min for 120 mins under shaking condition by ThT fluorescence assay relative to control
Activity calls are given as the source filed them. The rule behind the calls is not given here.
quantity: inhibition

- CC(=O)c1c(O)c(C)c(O)c2c1OC1=CC(=O)/C(=C(/C)Nc3ccc(Cl)cc3O)C(=O)[C@@]12C: 48.4%
- CC(=O)c1c(O)c(C)c(O)c2c1OC1=CC(=O)/C(=C(/C)Nc3cc(C)ccc3O)C(=O)[C@@]12C: 12.7%
- CC(=O)c1c(O)c(C)c(O)c2c1OC1=CC(=O)/C(=C(/C)N)C(=O)[C@@]12C: inactive
- CC(=O)c1c(O)c(C)c(O)c2c1OC1=Cc3c(c(C)nn3-c3ccncc3)C(=O)[C@@]12C: 8.5%
- CC(=O)c1c(O)c(C)c(O)c2c1OC1=Cc3c(c(C)nn3-c3ccc(C(=O)O)cc3)C(=O)[C@@]12C: 51.7%

Reported inhibition, compound "COc1ccc(S(=O)(=O)n2nc(C)c3c2C=C2Oc4c(C(C)=O)c(O)c(C)c(O)c4[C@@]2(C)C3=O)cc1" : ____ inactive

Reported inhibition, compound "CC(=O)c1c(O)c(C)c(O)c2c1OC1=CC(=O)/C(=C(/C)Nc3ccc(N(C)C)cc3)C(=O)[C@@]12C" : ____ 48.1%

Reported inhibition, compound "CC(=O)C1=C([O-])C=C2Oc3c(C(C)=O)c(O)c(C)c(O)c3[C@]2(C)C1=O.[Na+]" : ____ inactive

###

- Species: Homo sapiens
- assay-method-text: Inhibition of acetyl-PHF6 amide self-aggregation (unknown origin) in pH 7.4 phosphate buffer at 10 uM and 25 degreeC measured every 1 min for 120 mins under shaking condition by ThT fluorescence assay relative to control
Activity calls are given as the source filed them. The calls are words filed in the database; no cut-off is given here.
quantity: inhibition

Record excerpt, results attached:
• COc1ccc(-n2nc(C)c3c2C=C2Oc4c(C(C)=O)c(O)c(C)c(O)c4[C@@]2(C)C3=O)cc1 = 27.2%
• CC(=O)c1c(O)c(C)c(O)c2c1OC1=Cc3c(c(C)nn3-c3nc4ccccc4s3)C(=O)[C@@]12C = inactive
• CC(=O)c1c(O)c(C)c(O)c2c1OC1=CC(=O)/C(=C(/C)N[C@@H](Cc3ccccc3)C(=O)O)C(=O)[C@@]12C = inactive
• CC(=O)c1c(O)c(C)c(O)c2c1OC1=CC(=O)/C(=C(/C)Nc3ccc(N)cn3)C(=O)[C@@]12C = 46.4%
• CC(=O)c1c(O)c(C)c(O)c2c1OC1=Cc3c(c(C)nn3-c3ccccn3)C(=O)[C@@]12C = 17.1%
• CC(=O)c1c(O)c(C)c(O)c2c1OC1=Cc3c(c(C)nn3-c3ccccc3C(=O)O)C(=O)[C@@]12C = 32.8%
• O=c1c(O)c(-c2cc(O)c(O)c(O)c2)oc2cc(O)cc(O)c12 = 85.9%
• CC(=O)c1c(O)c(C)c(O)c2c1OC1=CC(=O)/C(=C(/C)Nc3cccc4cccnc34)C(=O)[C@@]12C = inactive
• CCOC(=O)c1ccc(-n2nc(C)c3c2C=C2Oc4c(C(C)=O)c(O)c(C)c(O)c4[C@@]2(C)C3=O)cc1 = 14.5%
• CC(=O)c1c(O)c(C)c(O)c2c1OC1=CC(=O)/C(=C(/C)Nc3ccc4c(c3)ncn4C)C(=O)[C@@]12C = inactive

Reported inhibition, compound "CC(=O)c1c(O)c(C)c(O)c2c1OC1=CC(=O)/C(=C(/C)Nc3ccc(C(=O)O)c(O)c3)C(=O)[C@@]12C" : ____ 27.6%

Reported inhibition, compound "COc1cc(N/C(C)=C2\C(=O)C=C3Oc4c(C(C)=O)c(O)c(C)c(O)c4[C@@]3(C)C2=O)cc(OC)c1OC" : ____ 5.4%

Reported inhibition, compound "CC(=O)c1c(O)c(C)c(O)c2c1OC1=Cc3c(c(C)nn3-c3ccc(S(C)(=O)=O)cc3)C(=O)[C@@]12C" : ____ 28.7%

Reported inhibition, compound "CC(=O)c1c(O)c(C)c(O)c2c1OC1=Cc3c(c(C)nn3-c3cccc(F)c3)C(=O)[C@@]12C" : ____ 30.3%

Reported inhibition, compound "CC(=O)c1c(O)c(C)c(O)c2c1OC1=Cc3c(c(C)nn3-c3nc4ccccc4[nH]3)C(=O)[C@@]12C" : ____ 12.2%

Reported inhibition, compound "CC(=O)c1c(O)c(C)c(O)c2c1OC1=CC(=O)/C(=C(/C)Nc3ccc4[nH]ccc4c3)C(=O)[C@@]12C" : ____ 39.2%
